biological target: Hsp104 (Saccharomyces cerevisiae, UniProt P31539); construct: made in house; host or cells: E. coli BL21-DE3 RIL; experiment: High-throughput Hsp104 ATPase plate assay (malachite green, 384-well); type: biochemical, yeast; settings: 10 µM compound, Hsp104 0.25 µM monomer, ATP 1 mM, 60 min; mean ±S.D. (n = 2)
Sequence (P31539 whole entry): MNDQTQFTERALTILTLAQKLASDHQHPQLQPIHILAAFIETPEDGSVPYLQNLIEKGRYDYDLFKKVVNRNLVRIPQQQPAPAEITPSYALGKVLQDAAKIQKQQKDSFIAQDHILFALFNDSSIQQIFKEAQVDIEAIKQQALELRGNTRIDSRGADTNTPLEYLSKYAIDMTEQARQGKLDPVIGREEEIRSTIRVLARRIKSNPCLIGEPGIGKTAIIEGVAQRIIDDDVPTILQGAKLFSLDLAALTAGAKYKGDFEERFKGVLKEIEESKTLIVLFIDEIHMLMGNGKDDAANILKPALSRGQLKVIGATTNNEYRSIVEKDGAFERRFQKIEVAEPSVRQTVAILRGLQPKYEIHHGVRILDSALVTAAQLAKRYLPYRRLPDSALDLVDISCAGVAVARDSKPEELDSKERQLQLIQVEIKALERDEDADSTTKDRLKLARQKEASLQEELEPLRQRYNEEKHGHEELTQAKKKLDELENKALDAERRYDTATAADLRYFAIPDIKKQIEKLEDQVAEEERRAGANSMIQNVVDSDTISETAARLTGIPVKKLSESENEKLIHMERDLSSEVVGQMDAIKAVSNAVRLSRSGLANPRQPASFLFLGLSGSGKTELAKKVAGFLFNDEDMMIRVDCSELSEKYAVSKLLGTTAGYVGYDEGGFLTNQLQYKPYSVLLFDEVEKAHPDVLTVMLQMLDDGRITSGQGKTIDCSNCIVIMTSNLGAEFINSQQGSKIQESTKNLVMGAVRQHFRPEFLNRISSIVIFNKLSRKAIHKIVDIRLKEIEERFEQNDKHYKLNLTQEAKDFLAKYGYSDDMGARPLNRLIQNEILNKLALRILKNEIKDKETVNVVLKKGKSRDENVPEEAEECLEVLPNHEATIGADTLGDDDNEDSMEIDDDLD
Kindly state % Inhibition of Hsp104 ATP hydrolysis for each of the entries shown.
Give bare numbers, in %.

O=C([O-])c1ccccc1-c1c2cc(Br)c(=O)cc-2oc2[c]([Hg+])c([O-])c(Br)cc12.[Na+].[Na+].[OH-] [Merbromin] : 21.17
O=C(O)c1cc(O)c2c(c1)[C@H]([C@H]1c3cc(C(=O)O)cc(O)c3C(=O)c3c(O[C@@H]4O[C@H](CO)[C@@H](O)[C@H](O)[C@H]4O)cccc31)c1cccc(O[C@@H]3O[C@H](CO)[C@@H](O)[C@H](O)[C@H]3O)c1C2=O [Sennoside a] : 19.92
N.N.[Cl][Pt][Cl] [Cisplatin, cis-diamminedichloroplatinum (II)] : 76.58
CC(=O)O.Cc1cc2c(C(C)C)c(O)c(O)c(C=O)c2c(O)c1-c1c(C)cc2c(C(C)C)c(O)c(O)c(C=O)c2c1O [Gossypol-acetic acid complex] : 47.92
Oc1c(Cl)cc(Cl)c(Cl)c1Cc1c(O)c(Cl)cc(Cl)c1Cl [Hexachlorophene] : 80.21

Problem: Any idea what its % Inhibition of Hsp104 ATP hydrolysis is? The molecule is N.N.O=C([O-])C1(C(=O)[O-])CCC1.[Pt+2] [Carboplatin]
Result: 73.75

* * *

Target: Hsp104 (Saccharomyces cerevisiae, UniProt P31539)
Construct: made in house; host or cells: E. coli BL21-DE3 RIL
Test: High-throughput Hsp104 ATPase plate assay (malachite green, 384-well)
Type: biochemical, yeast
Settings: 10 µM compound, Hsp104 0.25 µM monomer, ATP 1 mM, 60 min; mean ±S.D. (n = 2); read-out: % Inhibition of Hsp104 ATP hydrolysis
Method: ATPase activity was assessed by the release of inorganic phosphate determined using a malachite green phosphate detection kit (Innova Biosciences, Cambridge, United Kingdom). Microtiter plates (384-well) were purchased from PerkinElmer (Waltham, MA). […] We adapted the inorganic phosphate colorimetric assay to fit a 384-well plate format. A Ź-factor between 0.8 and 1 was calculated for the assay. […] Absorbance was measured at 635 nm on an EnVision Xcite Multilabel plate reader (PerkinElmer). […]
Counter-ions that a name gives are not always drawn.
Measure: inhibition at 10 µM (%)
One number for each entry, in %.

Worked cases, inhibition at 10 µM given:
O=C(Oc1cc(O)cc2c1C[C@@H](OC(=O)c1cc(O)c(O)c(O)c1)[C@@H](c1cc(O)c(O)c(O)c1)O2)c1cc(O)c(O)c(O)c1 [Epigallocatechin 3,5-digallate] : 21.9
O=C(O[C@@H]1Cc2c(O)cc(O)cc2O[C@@H]1c1cc(O)c(=O)c2c(O)c(O)cc([C@H]3Oc4cc(O)cc(O)c4C[C@H]3O)c2c1)c1cc(O)c(O)c(O)c1 : 57.2
O=C(O)C1=CC(=C(c2ccc(O)c(C(=O)O)c2)c2ccc(O)c(C(=O)O)c2)C=CC1=O : 24.2

# return inhibition at 10 µM for each item in the list
1. Cc1ccc(C(=O)Nc2ccc(S(=O)(=O)O)c3cc(S(=O)(=O)O)cc(S(=O)(=O)O)c23)cc1NC(=O)c1cccc(NC(=O)Nc2cccc(C(=O)Nc3cc(C(=O)Nc4ccc(S(=O)(=O)O)c5cc(S(=O)(=O)O)cc(S(=O)(=O)O)c45)ccc3C)c2)c1
2. C=C1c2cccc(O)c2C(=O)C2=C(O)[C@]3(O)C(=O)C(C(N)=O)=C(O)[C@@H](N(C)C)[C@@H]3[C@@H](O)[C@H]12 [Methacycline hydrochloride]

Result:
1: 50.8; 2: 33.3
